experimentalDetails: GPCRScan assay: inhibition of GABA/PBR
Design: species or system Rattus norvegicus; radioligand conc. used [nm] 0.3 – 2.0, parental cells brain tissue
recordedMetric: pKi
Worth noting: pKi values are minus log10 of concentrations stated in mol/L.

Data request: Recorded pKi of CN([C@@H]1CCc2c(CC(=O)O)c3ccccc3n2C1)S(=O)(=O)c1ccc(F)cc1 , please.
Data returned: 5.95

---

Sequence of the target: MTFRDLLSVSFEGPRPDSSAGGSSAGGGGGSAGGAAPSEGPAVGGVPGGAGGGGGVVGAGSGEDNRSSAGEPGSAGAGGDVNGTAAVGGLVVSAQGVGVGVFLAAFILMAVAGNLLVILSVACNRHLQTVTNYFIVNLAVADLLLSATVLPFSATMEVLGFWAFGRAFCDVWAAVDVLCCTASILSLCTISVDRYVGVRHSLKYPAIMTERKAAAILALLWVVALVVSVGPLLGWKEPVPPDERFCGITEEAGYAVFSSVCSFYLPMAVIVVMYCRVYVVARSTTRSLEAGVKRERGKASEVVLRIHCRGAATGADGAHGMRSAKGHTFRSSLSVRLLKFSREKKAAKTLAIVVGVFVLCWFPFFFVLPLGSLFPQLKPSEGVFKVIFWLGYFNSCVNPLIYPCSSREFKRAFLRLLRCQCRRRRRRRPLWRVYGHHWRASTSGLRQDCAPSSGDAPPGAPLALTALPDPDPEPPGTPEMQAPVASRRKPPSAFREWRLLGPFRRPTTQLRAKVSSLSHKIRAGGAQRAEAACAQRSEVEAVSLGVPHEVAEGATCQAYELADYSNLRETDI
recordedMetric: Ki (µM)
# value in µM; strip the unit string

Data request: Recorded Ki of CN([C@@H]1CCc2c(CC(=O)O)c3ccccc3n2C1)S(=O)(=O)c1ccc(F)cc1 , please.
Data returned: 10
